Below: a set of entries, each annotated with reported GI50.
test system: HCT-116; assay: NCI tumour cell line growth inhibition, 48 h
Calls of active or inactive are those of the source. Rule as the data show it: active = GI50 up to about 1.1 µM and inactive = higher.

Some solved entries appear below for comparison.
# compound, result
rows = [
    ("O=C(O)Cc1ccc(-n2nnc3c(=O)[nH][nH]c(=O)c32)cc1", "> 100 µM (inactive)"),
    ("N#Cc1c(N)nc2[nH]nc(N)c2c1-c1ccc(Cl)cc1", "5.52 µM (inactive)"),
    ("ClCc1ccc2ccc3ccc(CCl)nc3c2n1", "1.69 µM (inactive)"),
    ("COC(=O)CN1SC2(SC13C(C)(C)C(=O)C3(C)C)C(C)(C)C(=O)C2(C)C", "46 µM (inactive)"),
    ("O=c1/c(=C/c2ccccc2[N+](=O)[O-])sc2nnc(-c3ccco3)n12", "26.9 µM (inactive)"),
]

Request: State the recorded GI50 for this entry: CCOC(=O)NN(C(=O)OCC)c1ccc(/N=N/c2ccc(OC)cc2)n1C
Response: 18.6 µM (inactive)

Request: State the recorded GI50 for this entry: Cc1ccc2c(c1)NC(=O)C(N=[N+]=[N-])(c1ccccc1)C2=O (configuration not stated)
Response: 35.2 µM (inactive)

Request: State the recorded GI50 for this entry: O[C@H]1[C@H]2[C@H](O)C[C@H](CCOCc3ccccc3)CN2C[C@H]1O
Response: > 100 µM (inactive)

Request: State the recorded GI50 for this entry: CSc1c(C(=O)Nc2ccc(Cl)cc2)c(N)n(N)c(=O)c1C#N
Response: 32.6 µM (inactive)

Request: State the recorded GI50 for this entry: N#Cc1cc2c(cc1C#N)SCCSCCCSCCS2
Response: 21.3 µM (inactive)

Request: State the recorded GI50 for this entry: O=C1/C(=C/c2ccccc2)Oc2cc(O)ccc21
Response: > 100 µM (inactive)

Request: State the recorded GI50 for this entry: CCC1CN2CCc3cc(OC)c(OC)cc3C2CC1CC1c2cc(OC)c(OC)cc2CCN1C(=O)C1CCCN1 (configuration not stated)
Response: 19.5 µM (inactive)

Request: State the recorded GI50 for this entry: CC(=O)NNc1nc(C)c(C(=O)NNC(=O)C(=O)Nc2ccc([N+](=O)[O-])cc2C#N)s1
Response: > 100 µM (inactive)

Request: State the recorded GI50 for this entry: CC1=C2CCCC2C/C(=N/Nc2ccc([N+](=O)[O-])cc2[N+](=O)[O-])CC1 (configuration not stated)
Response: > 100 µM (inactive)

Request: State the recorded GI50 for this entry: CC1(C)CCC[C@@]2(C)C1CC[C@@]1(CO)O[C@H](C3=CC(=O)OC3O)C[C@H]12 (some centres not stated)
Response: 6.1 µM (inactive)

====

test system: DMS-273; experiment: NCI tumour cell line growth inhibition, 48 h
Activity calls are given as the source filed them. Rule as the data show it: active = GI50 up to about 1.1 µM and inactive = higher.
// allowed return values: true (1) = active, false (0) = inactive

Worked examples follow.
# molecule, label
records = [
    ("Cn1cnc([N+](=O)[O-])c1Sc1nc(N)nc2c1ncn2C1OC(CO)C(O)C1O (stereo not given)", "false (0)"),
    ("COc1cc2c(ccc3c4cc(OC)c(OC)cc4c[n+](C)c23)cc1O", "false (0)"),
]

Request: Please let me know the test result on file for C[C@]12CCC(=O)C=C1CC[C@@H]1C2CC[C@]2(C)Nc3c(cnn3-c3ccccc3)CC12 (stereo not given in full) .
Response: false (0)

Request: Please let me know the test result on file for C[N+](C)(C)CCC(=O)CC[N+](C)(C)C .
Response: false (0)

Request: Please let me know the test result on file for Nc1ncnc(NC2C=C(CO)C(O)C2O)c1[N+](=O)[O-] (stereo not given) .
Response: false (0)

Request: Please let me know the test result on file for COc1cccc(/C(Cl)=C(\C=O)c2cccc(OC)c2)c1 .
Response: false (0)

Request: Please let me know the test result on file for O=C(Nc1ccccc1[N+](=O)[O-])c1ccccc1 .
Response: false (0)

Request: Please let me know the test result on file for COC1C(O)C(C)OC(OC2C(Oc3cccc4c(O)c5c(=O)oc6ccc(C)c7c(=O)oc(c34)c5c67)OC(C)C3O[C@H](c4ccccc4)OC32)C1O (stereo not given in full) .
Response: true (1)

Request: Please let me know the test result on file for CC(=O)OCC1OC(n2ccc(=O)[nH]c2=O)C(OC(C)=O)C(OC(C)=O)C1OC(C)=O (stereo not given) .
Response: false (0)

Request: Please let me know the test result on file for Cc1cc2c(=O)cc(-c3ccc(C(=O)O)cc3)oc2c(C(=O)O)c1C .
Response: false (0)
